All values here come from patent US9815851B2.

Entries and their pIC50 values follow.
# experimental-system: RORγ ligand binding domain (LBD) (Homo sapiens, UniProt P51449)
# Construct: made in house; host or cells: E. coli BL-21 (BL3), vector pDEST15
# Sequence (P51449 269-508 limits assumed): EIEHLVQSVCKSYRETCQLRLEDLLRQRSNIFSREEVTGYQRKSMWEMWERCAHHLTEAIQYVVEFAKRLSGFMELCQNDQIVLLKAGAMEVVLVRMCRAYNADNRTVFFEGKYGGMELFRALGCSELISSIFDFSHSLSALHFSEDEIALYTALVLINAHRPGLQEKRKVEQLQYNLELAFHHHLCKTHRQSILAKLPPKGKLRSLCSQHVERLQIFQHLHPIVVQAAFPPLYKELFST
# assay: TR-FRET Activity Assay (ligand sensing, RORγ-LBD / coactivator peptide interaction, LANCE)
# Assay type: biochemical
Lab note — pIC50 values are minus log10 of concentrations in M.

In the examples that follow, each entry is paired with its recorded pIC50.
# compound, quantitative-result
rows = [
    ("Cc1c(C(=O)NCC2(CCO)COC2)cc(-c2cc(C(C)(C)C)cc(C(C)(C)C)c2)n1CC1CCCCC1 [17/44]", 6.20),
    ("COC(C)(C)CNC(=O)c1cc(-c2cc(C(C)(C)C)c3c(c2)C2(CCO3)CC2)n(CC2CCCCC2)c1C [1/97]", 6.60),
    ("Cc1c(C(=O)NCC2(O)CCS(=O)(=O)CC2)cc(-c2cc(C(C)(C)C)c3c(c2)C2(CCO3)CC2)n1CC1CCCCC1 [17/81]", 6.20),
]

Let us move to another entry and its pIC50.
The value of pIC50 measured for the compound Cc1c(C(=O)NC2COC2)cc(-c2cc(C(C)(C)C)cc(C(C)(C)CF)c2)n1CC1CCCCC1 [17/42] turned out to be 5.70

====

# experimental-system: RORγ ligand binding domain (LBD) (Homo sapiens, UniProt P51449)
# Construct: made in house; host or cells: E. coli BL-21 (BL3), vector pDEST15
# assay: TR-FRET Activity Assay (ligand sensing, RORγ-LBD / coactivator peptide interaction, LANCE)
# Format: biochemical
# test-context: first value of the cell FRET/FF/REN; TR-FRET activity assay; read-out: pIC50 (FRET) (converted)
Please respond with 1 when measured IC50 is strictly beneath 0.4 µM, and with 0 in all other cases.

# chemical-structure, class-assignment
rows = [
    ("CCNC(=O)c1cc(-c2ccc(S(=O)(=O)NC(C)(C)C)c(C(C)(C)C)c2)n(CC2CCCCC2)c1C", 1),
    ("CCC(C)(C)NS(=O)(=O)c1ccc(-c2cc(C(=O)NC3CCOCC3)c(C)n2CC2CCC2)cc1C(F)(F)F", 1),
    ("Cc1c(C(=O)NC2CCOCC2)cc(-c2cc(C(=O)NCC(F)(F)F)cc(C3(C)CC3)c2)n1CC1CCCCC1", 0),
    ("Cc1c(C(=O)NC2CCOCC2)cc(-c2cc3c(c(C(C)(C)C)c2)OCCC3=NO)n1CC1CCCCC1", 0),
    ("Cc1c(C(=O)NC2CCOCC2)cc(-c2cc(C(F)(F)F)c(S(=O)(=O)NC(C)(C)C)cc2F)n1CC1CCCCC1", 1),
]

Strictly below 0.4 µM in IC50? CCn1cc(-c2ccc(-c3cc(C(=O)NC4CCOCC4)c(C)n3CC3CCCCC3)cc2C(C)(C)C)cn1
0

Please state whether IC50 is below 0.4 µM for Cc1c(C(=O)NC2CCOCC2)cc(-c2ccc(S(=O)(=O)NC(C)(C)C)c(C(F)(F)F)c2)n1CC1CCC(F)(F)CC1
0

Please state whether IC50 is below 0.4 µM for Cc1c(C(=O)NCC2(O)CCS(=O)(=O)CC2)cc(-c2ccc(S(=O)(=O)NC(C)(C)C)c3ccccc23)n1CC1CCCCC1
0

Input CCC(C)(C)NS(=O)(=O)c1ccc(-c2cc(C(=O)NCC(C)(C)O)c(C)n2CC2CCCCC2)cc1C(C)(C)C ; condition: IC50 strictly below 0.4 µM. Does it hold?
0

====

# experimental-system: RORγ ligand binding domain (LBD) (Homo sapiens, UniProt P51449)
# Construct: made in house; host or cells: E. coli BL-21 (BL3), vector pDEST15
# assay: TR-FRET Activity Assay (ligand sensing, RORγ-LBD / coactivator peptide interaction, LANCE)
# Format: biochemical
# test-context: first value of the cell FRET/FF/REN; TR-FRET activity assay; read-out: pIC50 (FRET) (converted)
readout-type: log10(IC50) (log10 of the value in nM)
Recorded IC50 (log10, nM)

Answered cases to consult:
# compound, log10(IC50)
data = [
    ("Cc1c(C(=O)NC2CCOCC2)cc(-c2ccc(S(=O)(=O)NC(C)(C)C)c(C(F)(F)F)c2)n1CC1CC(C)C1 (stereo not shown) [17/177]", 2.20),
    ("Cc1c(C(=O)NC2CCOCC2)cc(-c2cc3c(c(C(C)(C)C)c2)OCCC3F)n1CC1CCCCC1 (stereo not shown) [18/4]", 2.90),
    ("Cc1c(C(=O)NCCCCCO)cc(-c2cc(C(C)(C)C)cc(C(C)(C)C)c2)n1CC1CCCCC1 [1/67]", 2.20),
]

The measured log10(IC50) associated with Cc1c(C(=O)N[C@H]2C[C@H](C(=O)O)C2)cc(-c2cc(C(=O)NC(C)(C)C)cc3ccccc23)n1CC1CCCCC1 [17/189] reads 3.70

What the record says about Cc1c(C(=O)N[C@H]2C[C@H](C(=O)O)C2)cc(-c2ccc(S(=O)(=O)NC(C)(C)C)c3c(F)cccc23)n1CC1CCCCC1 [17/364] : log10(IC50) is 3.00

Record Cc1c(C(=O)N2CC3(C2)NC(=O)CNC3=O)cc(-c2ccc(S(=O)(=O)NC(C)(C)C)c(C(F)(F)F)c2)n1CC1CCCCC1 [17/294] . Reported log10(IC50): 3.50

====

# experimental-system: RORγ (UniProt P51449)
# assay: RORγ Gal4 Reporter Gene Assay in 293T cells (firefly and renilla luciferase)
# Assay type: cell-based, human
# test-context: third value of the cell; Gal4 reporter gene assay in 293T cells, renilla normalised luciferase
Each entry gets condition not met if its pIC50 (REN) stays under 7, and condition met if its pIC50 (REN) is 7 or above.

# compound, class-assignment
records = [
    ("CC(C)(C)NS(=O)(=O)c1ccc(-c2cc(C(=O)NC3CCOCC3)cn2CC2CCCCC2)cc1C(C)(C)C [17/116]", "condition met"),
    ("Cc1c(C(=O)NCC(C)(C)c2noc(=O)[nH]2)cc(-c2cc(C(C)(C)C)cc(C3(C)CC3)c2)n1CC1CCCCC1 [17/162]", "condition met"),
    ("CC(=O)NC(C)(C)CNC(=O)c1cc(-c2cc(C(C)(C)C)c3c(c2)C2(CCO3)CC2)n(CC2CCCCC2)c1C [17/28]", "condition met"),
    ("Cc1c(C(N)=O)cc(-c2ccc(C(O)(C(F)(F)F)C(F)(F)F)cc2)n1CC1CCCCC1 [1/45]", "condition not met"),
]

Can Cc1noc2ccc(-c3cc(C(N)=O)c(C)n3CC3CCCCC3)cc12 [1/49] be said to have pIC50 (REN) at or above 7?
condition not met

====

# experimental-system: RORγ (UniProt P51449)
# assay: RORγ Gal4 Reporter Gene Assay in 293T cells (firefly and renilla luciferase)
# Type: cell-based, human
# test-context: second value of the cell; Gal4 reporter gene assay in 293T cells, firefly luciferase
readout-type: pIC50 (FF)
When you answer, write just the number.

Worked examples follow.
# compound, readout-type, quantitative-result
data = [
    ("Cc1c(C(=O)NCC(C)(C)NS(=O)(=O)C2CC2)cc(-c2cc(C(C)(C)C)c3c(c2)C2(CCO3)CC2)n1CC1CCCCC1", "pIC50 (FF)", 7.1),
    ("Cc1c(C(=O)NC2CCOCC2)cc(-c2ccc(S(=O)(=O)NC(C)(C)CCO)c(C(F)(F)F)c2)n1CC1CCCCC1", "pIC50 (FF)", 6.9),
    ("Cc1c(C(=O)N[C@H]2CC[C@H](C(=O)O)CC2)cc(-c2cc(C(C)(C)C)c3c(c2)C2(CCO3)CC2)n1CC1CCCCC1", "pIC50 (FF)", 7.4),
    ("Cc1c(C(=O)NCC(N)=O)cc(-c2cc(C(C)(C)C)cc(C(C)(C)C)c2)n1CC1CCCCC1", "pIC50 (FF)", 6.3),
    ("Cc1c(C(=O)N[C@H]2C[C@H](C(=O)O)C2)cc(-c2ccc(S(=O)(=O)NCC(F)(F)F)c3ccccc23)n1CC1CCCCC1", "pIC50 (FF)", 7.1),
]

Record Cc1c(C(=O)NC2CCOCC2)cc(-c2cc(C(F)(F)F)c(S(=O)(=O)NC(C)(C)C)cc2F)n1CC1CCCCC1 . Reported pIC50 (FF): 7.5

====

List of IC50 values.
# experimental-system: RORγ ligand binding domain (LBD) (Homo sapiens, UniProt P51449)
# Construct: made in house; host or cells: E. coli BL-21 (BL3), vector pDEST15
# assay: TR-FRET Activity Assay (ligand sensing, RORγ-LBD / coactivator peptide interaction, LANCE)
# Assay type: biochemical
# test-context: first value of the cell FRET/FF/REN; TR-FRET activity assay; read-out: pIC50 (FRET) (converted)
// return numeric value only (unit: nM, not printed)

Known results for molecules:
# molecule, experimental-system, measurement-units, quantitative-result
rows = [
    ("Cc1c(C(=O)NCC(C)(C)C(=O)NCCCCO)cc(-c2cc(C(C)(C)C)c3c(c2)C2(CCO3)CC2)n1CC1CCCCC1 [11/7]", "RORγ ligand binding domain (LBD) (Homo sapiens, UniProt P51449)", "nM", 251),
    ("Cc1c(C(=O)NCC(C)(C)C(N)=O)cc(-c2cc(C(C)(C)C)cc(C3(C)CC3)c2)n1CC1CCCCC1 [1/85]", "RORγ ligand binding domain (LBD) (Homo sapiens, UniProt P51449)", "nM", 316),
]

Looking up Cc1c(C(=O)NC2CCOCC2)cc(-c2ccc(S(=O)(=O)NC(C)(C)CO)c(C(F)(F)F)c2)n1CC1CCCCC1 [17/107] , I found its IC50 recorded as 1000

Entry under test: Cc1c(C(=O)NC2CCOCC2)cc(-c2ccc(S(=O)(=O)N[C@@H](C)C(F)(F)F)c(C(F)(F)F)c2)n1CC1CCCCC1 [17/141] . Its IC50 was 316

Value of measured IC50 for the entry Cc1c(C(=O)NC2COC2)cc(-c2cc(C(F)(F)F)cc(C3(C)CC3)c2)n1CC1CCCCC1 [1/79] : 398

// IC50 lookup, molecule = Cc1c(C(=O)NCC(C)(C)C(=O)N2CCOCC2)cc(-c2cc(C(C)(C)C)c3c(c2)C2(CCO3)CC2)n1CC1CCCCC1 [Example 11] , result: 251

Documented IC50 of Cc1c(C(=O)NC2CCOCC2)cc(-c2cc(C(C)(C)C)c3c(c2)C2(CCO3)CC2)n1CC1CCCCC1 [1/93] : 200
